Reference source for all entries: paper PMC12029836

tested on: E. coli ATCC 8739; assay: Antimicrobial activity, broth microdilution MIC/MBC; format: cell-based, Escherichia coli; conditions: E. coli ATCC 8739; nd—not detected
attribute.measured: MBC (%)
Number only, in %; omit the unit.

So, NCCCC[C@H](N)C(=O)O.OCCN(CCO)CCO [[TEA][Lys]] ? Its MBC (%) was 3.75

So, CC(N)C(=O)O.OCCN(CCO)CCO [[TEA][Ala]] ? Its MBC (%) was 7.50

So, N=C(N)NCCC[C@H](N)C(=O)O.OCCN(CCO)CCO [[TEA][Arg]] ? Its MBC (%) was 3.75

So, N[C@@H](CC(=O)O)C(=O)O.OCCN(CCO)CCO [[TEA][Asp]] ? Its MBC (%) was 15

So, NC(CCC(=O)O)C(=O)O.OCCN(CCO)CCO (stereo not shown) [[TEA][Glu]] ? Its MBC (%) was 15

So, O=C(O)[C@@H]1CCCN1.OCCN(CCO)CCO [[TEA][Pro]] ? Its MBC (%) was 7.50

So, NC(CO)C(=O)O.OCCN(CCO)CCO [[TEA][Ser]] ? Its MBC (%) was 7.50

---

Assignment: determine reported Inhibition of the root growth in pregerminated Lepidium sativum seeds (IRG, %) for the given compounds.
test system: Lepidium sativum L. roots; conditions: 1.00% (w/w) compound in the medium, 24 h incubation, mean(±SD), n = 3

So, NC(=O)C[C@H](N)C(=O)O.OCCN(CCO)CCO [[TEA][Asn]] ? Its Inhibition of the root growth in pregerminated Lepidium sativum seeds (IRG, %) was 58.9(±1.1) %

So, CC(N)C(=O)O.OCCN(CCO)CCO [[TEA][Ala]] ? Its Inhibition of the root growth in pregerminated Lepidium sativum seeds (IRG, %) was 55.2(±0.8) %

So, NC(CO)C(=O)O.OCCN(CCO)CCO [[TEA][Ser]] ? Its Inhibition of the root growth in pregerminated Lepidium sativum seeds (IRG, %) was 70.2(±0.7) %

So, O=C(O)[C@@H]1CCCN1.OCCN(CCO)CCO [[TEA][Pro]] ? Its Inhibition of the root growth in pregerminated Lepidium sativum seeds (IRG, %) was 74.5(±1.2) %

So, N[C@@H](CC(=O)O)C(=O)O.OCCN(CCO)CCO.OCCN(CCO)CCO [[TEA]2[Asp]] ? Its Inhibition of the root growth in pregerminated Lepidium sativum seeds (IRG, %) was 40.7(±1.2) %

So, CC(O)C(N)C(=O)O.OCCN(CCO)CCO [[TEA][Thr]] ? Its Inhibition of the root growth in pregerminated Lepidium sativum seeds (IRG, %) was 73.7(±1.0) %

So, N[C@@H](Cc1ccccc1)C(=O)O.OCCN(CCO)CCO [[TEA][Phe]] ? Its Inhibition of the root growth in pregerminated Lepidium sativum seeds (IRG, %) was 60.2(±1.4) %

So, CCC(C)C(N)C(=O)O.OCCN(CCO)CCO [[TEA][Ile]] ? Its Inhibition of the root growth in pregerminated Lepidium sativum seeds (IRG, %) was 56.9(±1.2) %

So, CC(C)[C@H](N)C(=O)O.OCCN(CCO)CCO [[TEA][Val]] ? Its Inhibition of the root growth in pregerminated Lepidium sativum seeds (IRG, %) was 62.9(±2.4) %

So, NC(=O)CCC(N)C(=O)O.OCCN(CCO)CCO (stereo not shown) [[TEA][Gln]] ? Its Inhibition of the root growth in pregerminated Lepidium sativum seeds (IRG, %) was 72.9(±0.9) %

---

system: Lepidium sativum L. seeds; conditions: 2.00% (w/w) compound in the medium, 24 h incubation, mean(±SD), n = 3
attribute.measured: Inhibition of the Lepidium sativum seeds germination (ISG, %)

So, CSCC[C@H](N)C(=O)O.OCCN(CCO)CCO [[TEA][Met]] ? Its Inhibition of the Lepidium sativum seeds germination (ISG, %) was 7.4(±0.9) %

So, CCC(C)C(N)C(=O)O.OCCN(CCO)CCO [[TEA][Ile]] ? Its Inhibition of the Lepidium sativum seeds germination (ISG, %) was 23.2(±0.9) %

So, NC(CO)C(=O)O.OCCN(CCO)CCO [[TEA][Ser]] ? Its Inhibition of the Lepidium sativum seeds germination (ISG, %) was 17.0(±0.5) %

So, CC(C)C[C@H](N)C(=O)O.OCCN(CCO)CCO [[TEA][Leu]] ? Its Inhibition of the Lepidium sativum seeds germination (ISG, %) was 32.1(±0.1) %

So, NC(CCC(=O)O)C(=O)O.OCCN(CCO)CCO (stereo not drawn) [[TEA][Glu]] ? Its Inhibition of the Lepidium sativum seeds germination (ISG, %) was 10.7(±1.3) %

So, N[C@@H](Cc1c[nH]c2ccccc12)C(=O)O.OCCN(CCO)CCO [[TEA][Trp]] ? Its Inhibition of the Lepidium sativum seeds germination (ISG, %) was 38.9(±1.6) %

So, NC(=O)C[C@H](N)C(=O)O.OCCN(CCO)CCO [[TEA][Asn]] ? Its Inhibition of the Lepidium sativum seeds germination (ISG, %) was 33.3(±2.9) %

So, CC(C)[C@H](N)C(=O)O.OCCN(CCO)CCO [[TEA][Val]] ? Its Inhibition of the Lepidium sativum seeds germination (ISG, %) was 17.0(±0.5) %

So, NC(=O)CCC(N)C(=O)O.OCCN(CCO)CCO (stereo not drawn) [[TEA][Gln]] ? Its Inhibition of the Lepidium sativum seeds germination (ISG, %) was 38.1(±2.1) %

---

Assignment: determine reported MIC (%) for the given compounds.
system: S. aureus ATCC 6538; experiment: Antimicrobial activity, broth microdilution MIC/MBC; type: cell-based, Staphylococcus aureus; conditions: S. aureus ATCC 6538, 24 h at 37 °C, at least 90% growth inhibition; nd—not detected
Number only, in %; omit the unit.

So, NC(CO)C(=O)O.OCCN(CCO)CCO [[TEA][Ser]] ? Its MIC (%) was 7.50

So, NCCCC[C@H](N)C(=O)O.OCCN(CCO)CCO [[TEA][Lys]] ? Its MIC (%) was 1.88

So, NC(CCC(=O)O)C(=O)O.OCCN(CCO)CCO (stereo not shown) [[TEA][Glu]] ? Its MIC (%) was 15

So, N[C@@H](CC(=O)O)C(=O)O.OCCN(CCO)CCO [[TEA][Asp]] ? Its MIC (%) was 15

So, CC(N)C(=O)O.OCCN(CCO)CCO [[TEA][Ala]] ? Its MIC (%) was 7.50

So, N=C(N)NCCC[C@H](N)C(=O)O.OCCN(CCO)CCO [[TEA][Arg]] ? Its MIC (%) was 3.75

So, O=C(O)[C@@H]1CCCN1.OCCN(CCO)CCO [[TEA][Pro]] ? Its MIC (%) was 7.50

---

tested on: Lepidium sativum L. seeds; conditions: 0.50% (w/w) compound in the medium, 24 h incubation, mean(±SD), n = 3
attribute.measured: Inhibition of the Lepidium sativum seeds germination (ISG, %)

So, O=C(O)[C@@H]1CCCN1.OCCN(CCO)CCO [[TEA][Pro]] ? Its Inhibition of the Lepidium sativum seeds germination (ISG, %) was 20.4(±1.3) %

So, NCCCC[C@H](N)C(=O)O.OCCN(CCO)CCO [[TEA][Lys]] ? Its Inhibition of the Lepidium sativum seeds germination (ISG, %) was 0.0(±0.0) %

So, NC(CO)C(=O)O.OCCN(CCO)CCO [[TEA][Ser]] ? Its Inhibition of the Lepidium sativum seeds germination (ISG, %) was 6.6(±0.9) %

So, N[C@@H](Cc1c[nH]cn1)C(=O)O.OCCN(CCO)CCO [[TEA][His]] ? Its Inhibition of the Lepidium sativum seeds germination (ISG, %) was 9.3(±0.5) %

So, N[C@@H](Cc1c[nH]c2ccccc12)C(=O)O.OCCN(CCO)CCO [[TEA][Trp]] ? Its Inhibition of the Lepidium sativum seeds germination (ISG, %) was 18.5(±1.8) %

So, NC(CCC(=O)O)C(=O)O.OCCN(CCO)CCO.OCCN(CCO)CCO (centres unmarked) [[TEA]2[Glu]] ? Its Inhibition of the Lepidium sativum seeds germination (ISG, %) was 7.4(±0.9) %

So, CCC(C)C(N)C(=O)O.OCCN(CCO)CCO [[TEA][Ile]] ? Its Inhibition of the Lepidium sativum seeds germination (ISG, %) was 5.4(±0.5) %

So, CSCC[C@H](N)C(=O)O.OCCN(CCO)CCO [[TEA][Met]] ? Its Inhibition of the Lepidium sativum seeds germination (ISG, %) was 1.9(±1.3) %

So, NCC(=O)O.OCCN(CCO)CCO [[TEA][Gly]] ? Its Inhibition of the Lepidium sativum seeds germination (ISG, %) was 13.8(±2.6) %

So, NC(CCC(=O)O)C(=O)O.OCCN(CCO)CCO (centres unmarked) [[TEA][Glu]] ? Its Inhibition of the Lepidium sativum seeds germination (ISG, %) was 8.9(±0.8) %

So, NC(=O)C[C@H](N)C(=O)O.OCCN(CCO)CCO [[TEA][Asn]] ? Its Inhibition of the Lepidium sativum seeds germination (ISG, %) was 14.8(±2.4) %

So, CC(O)C(N)C(=O)O.OCCN(CCO)CCO [[TEA][Thr]] ? Its Inhibition of the Lepidium sativum seeds germination (ISG, %) was 16.8(±0.9) %

So, CC(N)C(=O)O.OCCN(CCO)CCO [[TEA][Ala]] ? Its Inhibition of the Lepidium sativum seeds germination (ISG, %) was 9.4(±1.4) %

So, CC(C)C[C@H](N)C(=O)O.OCCN(CCO)CCO [[TEA][Leu]] ? Its Inhibition of the Lepidium sativum seeds germination (ISG, %) was 11.3(±0.8) %

So, CC(C)[C@H](N)C(=O)O.OCCN(CCO)CCO [[TEA][Val]] ? Its Inhibition of the Lepidium sativum seeds germination (ISG, %) was 3.8(±1.7) %

So, N[C@@H](CC(=O)O)C(=O)O.OCCN(CCO)CCO [[TEA][Asp]] ? Its Inhibition of the Lepidium sativum seeds germination (ISG, %) was 0.0(±0.0) %

So, N[C@@H](CC(=O)O)C(=O)O.OCCN(CCO)CCO.OCCN(CCO)CCO [[TEA]2[Asp]] ? Its Inhibition of the Lepidium sativum seeds germination (ISG, %) was 16.4(±1.3) %

So, N=C(N)NCCC[C@H](N)C(=O)O.OCCN(CCO)CCO [[TEA][Arg]] ? Its Inhibition of the Lepidium sativum seeds germination (ISG, %) was 5.5(±0.5) %

So, N[C@@H](Cc1ccccc1)C(=O)O.OCCN(CCO)CCO [[TEA][Phe]] ? Its Inhibition of the Lepidium sativum seeds germination (ISG, %) was 5.3(±0.8) %

So, NC(=O)CCC(N)C(=O)O.OCCN(CCO)CCO (centres unmarked) [[TEA][Gln]] ? Its Inhibition of the Lepidium sativum seeds germination (ISG, %) was 15.0(±0.5) %
